assay: BSK_3C_VCAM1: BioMAP Diversity Plus: 3C Assay for Vascular cell adhesion molecule 1 (VCAM1) Biomarker Activity (AID 2282999); settings: BioMAP 3C HUVEC, VCAM1 ELISA, cytokine-stimulated; actives raise or lower the signal
The source made the active and inactive calls. The calls were made as follows: active = hit-call score of the fitted dose curve at least 0.9, where 1 is the maximum; inactive = score below 0.9.
// one of active, inactive, no free text

So what was the verdict on Cc1c(C)c2c(c(C)c1O)CCC(C)(COc1ccc(CC3SC(=O)NC3=O)cc1)O2 (centres undefined) in this test?
active

Same thing, different compound: "CC(C)(O)c1ccc(CNC(=O)c2cccnc2Oc2ccc(F)cc2)cc1"
inactive

Same thing, different compound: "S=c1[nH]c2ccccc2s1"
inactive

Same thing, different compound: "CC(=O)[C@@]1(O)CC[C@H]2[C@@H]3CCC4=CC(=O)CC[C@]4(C)[C@H]3CC[C@@]21C"
inactive

Same thing, different compound: "CC(C)c1cccc(C(C)C)c1"
inactive

Same thing, different compound: "COC(=O)CCC(=O)OC"
inactive

Same thing, different compound: "CN(C)C(=O)NC1(c2ccccc2)CCN(CC[C@@]2(c3ccc(F)c(F)c3)CN(C(=O)c3ccccc3)CCO2)CC1"
inactive

Same thing, different compound: "Oc1ccc(O)cc1"
active

Same thing, different compound: CCC(C)N(C)C(=O)c1cc2ccccc2c(-c2ccccc2Cl)n1 (centres undefined)
inactive

Same thing, different compound: "CCN(CC)CCOc1ccc(C(=C(Cl)c2ccccc2)c2ccccc2)cc1"
active

Same thing, different compound: "CC1=C(C)S(=O)(=O)CCS1(=O)=O"
inactive

Same thing, different compound: "O=C1c2c(O)cccc2Cc2cccc(O)c21"
inactive

Same thing, different compound: "CCCCOC(=O)CCCCC(=O)OCCCC"
inactive

Same thing, different compound: "CO[C@@H]1COCC[C@@H]1N[C@@H]1CC[C@@](C(=O)N2CCc3ncc(C(F)(F)F)cc3C2)(C(C)C)C1"
inactive

Same thing, different compound: "C/C=C/C=C/C(=O)O"
inactive

Same thing, different compound: "O=C(O)CC(O)(CC(=O)O)C(=O)O"
inactive

Same thing, different compound: CCCCC(CC)COP(=O)(OCC(CC)CCCC)OCC(CC)CCCC (centres undefined)
active

Same thing, different compound: "C/C=C/c1ccc(OC)cc1"
inactive

Same thing, different compound: "NC=O"
inactive
